Abnormal stool occurrence: recorded values
# Tested on: DSS-induced mouse colitis
# assay_text: Effect on improvement of pathological conditions in DSS-induced IBD model
# Assay type: in vivo, mice (C57BL/6N Jcl)
# protocol_conditions: mice with abnormal stool (loose stool, diarrhea, blood in stool) counted on day 8; n=6 per group; 2% DSS day 1 to day 7; drug 30 mg/kg/day day 0 to day 7; control 6, non-treatment 0
Reply with just the number.

>  <compound>
CN(CCO)Cc1[nH]c(=O)[nH]c(=O)c1Cl [Compound 3]

>  <reading>
3

$$$$
>  <compound>
CNCc1[nH]c(=O)[nH]c(=O)c1Cl [Compound 1, 5-chloro-6-(methylaminomethyl)uracil]

>  <reading>
4

$$$$
>  <compound>
Cl.O=c1[nH]c(CSc2nnc[nH]2)c(Cl)c(=O)[nH]1 [Compound 4]

>  <reading>
0

$$$$
>  <compound>
N=C1NCCN1Cc1[nH]c(=O)[nH]c(=O)c1Cl [Compound 5]

>  <reading>
0

$$$$
>  <compound>
O=c1[nH]c(CN2CCCC2)c(Br)c(=O)[nH]1 [Compound 6, 5-bromo-6-(1-pyrrolidinylmethyl)uracil]

>  <reading>
2

$$$$

Item O=c1[nH]c(CN2CCCC2)c(Cl)c(=O)[nH]1 [Compound 2, 5-chloro-6-(1-pyrrolidinylmethyl)uracil] has what recorded Abnormal stool occurrence?
3

Cited source for all entries: patent US8188105B2
